Below, each entry is listed alongside its reported Dmax.
Biological target: VAV1 (Homo sapiens, UniProt P15498+Q96SW2)
Construct: A heterozygous VAV1 C-terminal HiBiT knock-in pool was generated at Monte Rosa Therapeutics from a clonal Jurkat cell; endogenous in cells; host or cells: Jurkat clone stably expressing LgBiT, homozygous GSPT1-G575N; heterozygous VAV1-HiBiT knock-in pool
Test: VAV1 degradation activity, VAV1-HiBiT knock-in Jurkat luminescence assay (Example A, Table 1)
Assay type: cell-based
Details: Jurkat, VAV1-HiBiT knock-in Jurkat cells, luminescence read at 6 and 24 hours; read-out: VAV1 Dmax %
REPORTED_METRIC: Dmax (%)

# COMPOUND, OBSERVED
rows = [
    ("O=C1CCC(c2cccc(-c3ccc(-n4cc(C(F)(F)F)ccc4=O)cc3)c2Cl)C(=O)N1 (stereo not shown) [Compound 237]", 92.7),
    ("O=C1CCC(c2cccc(-c3ccc(Cc4ncccn4)cc3)c2Cl)C(=O)N1 (stereo not shown) [Compound 208]", 97.2),
    ("O=C1CCC(c2c(F)ccc(-c3ccc(Cn4ccccc4=O)cc3)c2F)C(=O)N1 (stereo not shown) [Compound 147]", 33.3),
    ("O=C1CCC(c2cccc(-c3ccc(N4CCCOC4=O)cc3)c2Cl)C(=O)N1 (stereo not shown) [Compound 204]", 95.8),
    ("O=C1CCC(c2cccc(-c3ccc(CN4C(=O)CCn5nccc54)cc3)c2Cl)C(=O)N1 (stereo not shown) [Compound 253]", 87.7),
    ("O=C1CCC(c2cccc(-c3ccc4c(c3)CC(=O)N4Cc3ncccn3)c2Cl)C(=O)N1 (stereo not shown) [Compound 393]", 86.7),
    ("COc1cc(OC(F)F)ccc1-c1cccc(C2CCC(=O)NC2=O)c1Cl (stereo not shown) [Compound 137]", 63.8),
    ("Cn1cncc1COc1ccc(-c2cccc(C3CCC(=O)NC3=O)c2Cl)cc1 (stereo not shown) [Compound 186]", 95.3),
    ("C[C@H]1COCC(=O)N1c1ccc(-c2cccc(C3CCC(=O)NC3=O)c2Cl)cc1 (stereo partly shown) [Compound 325]", 96.2),
    ("O=C1CC[C@@H](c2cccc(-c3ccc(-n4ccccc4=O)cc3)c2Cl)C(=O)N1 [Compound 211]", 97.9),
    ("CC(C)(c1ccc(-c2cccc(C3CCC(=O)NC3=O)c2Cl)cc1)N1CCCCC1=O (stereo not shown) [Compound 197]", 88.8),
    ("CNc1ccc(-c2cccc(C3CCC(=O)NC3=O)c2Cl)cc1 (stereo not shown) [Compound 134]", 85.7),
    ("O=C1CCC(c2cccc(-c3ccc(Cc4ccon4)cc3)c2Cl)C(=O)N1 (stereo not shown) [Compound 455]", 95.5),
    ("O=C1CCC(c2cccc(-c3ccc(OCc4ccncc4)cc3)c2Cl)C(=O)N1 (stereo not shown) [Compound 124]", 98.8),
    ("O=C1CCC(c2cccc(-c3ccc(N4CCCC(F)(F)C4=O)cc3)c2Cl)C(=O)N1 (stereo not shown) [Compound 322]", 93.9),
    ("O=C1CCC(c2cccc(-c3ccc(Cc4cccnn4)cc3)c2Cl)C(=O)N1 (stereo not shown) [Compound 453]", 97.8),
    ("Cc1cccn(Cc2ccc(-c3cccc(C4CCC(=O)NC4=O)c3Cl)cc2)c1=O (stereo not shown) [Compound 187]", 94.2),
    ("CN1CC2(CC2)N(c2ccc(-c3cccc(C4CCC(=O)NC4=O)c3Cl)cc2)C1=O (stereo not shown) [Compound 342]", 97.7),
    ("Cc1c(-c2ccc(Cn3ccccc3=O)cc2)cccc1C1CCC(=O)NC1=O (stereo not shown) [Compound 243]", 56.8),
]

Provenance of the data: patent US12257247B2
